System: PA-1
Assay: Primary qHTS to identify gynecologic anti-cancer compounds using libraries of approved drugs and bioactive compounds (AID 1345084); note: nearly all actives have a fitted effect of over 55% in size
Settings: Gynecologic cancer cell panel viability, ATPlite luminescence, 48 h; series mostly up to 57.5 µM
Results filed as inconclusive are left out. Calls of active or inactive are those of the source. Calls come from the whole dose curve; as a rule, active = well fitted cell-killing curve with a large enough effect; inconclusive = small, poorly fitted or top-dose-only effect, or effect the other way; inactive = flat fitted curve, though single readings scatter.
Give your call using only these classes: True for active, False for inactive

Input: Hi team, can someone confirm the assay call for CC(C)=CCC[C@](C)(O[C@@H]1O[C@H](CO[C@@H]2OC[C@@H](O)[C@H](O)[C@H]2O)[C@@H](O)[C@H](O)[C@H]1O)[C@H]1CC[C@]2(C)[C@@H]1[C@H](O)C[C@@H]1[C@@]3(C)CC[C@H](O[C@@H]4O[C@H](CO)[C@@H](O)[C@H](O)[C@H]4O)C(C)(C)[C@@H]3CC[C@]12C ?
Output: False

Input: Answer briefly: the call reported for Cc1ccc(N2CCN(S(=O)(=O)N3CCCCC3)CC2)c(C)c1 in this assay.
Output: False

Input: Test call, this molecule: O=C(NCc1ccccc1)c1ccc2c(=O)n(-c3cccc(C(F)(F)F)c3)c(=S)[nH]c2c1
Output: False

Input: // return assay outcome for O=C(Nc1ccccc1)c1ccc(Nc2nnc(-c3ccc(O)cc3)c3ccccc23)cc1
Output: False

Input: Hi team, can someone confirm the assay call for C=C1C(=O)O[C@H]2C1CCC(C)=C1C(=O)C=C(C)[C@@]12O (some centres not stated) ?
Output: False

Input: Record request — test call for COCCCNC(=O)c1ccc(Cn2c(=O)c3ccccc3n(Cc3ccc(C(C)C)cc3)c2=O)cc1
Output: False

Input: I would be grateful if you could indicate the recorded call for Cc1c[nH]c2ncnc(N3CCC(CN)(C(=O)Nc4cccc(OC(=O)N(C)C)c4)CC3)c12 .
Output: False

Input: Kindly provide the recorded test outcome for the following molecule: CC(C)(C[C@@](O)(Cc1cc2ccncc2[nH]1)C(F)(F)F)c1cc(F)ccc1O
Output: False

----------
Assay: P-glycoprotein substrates identified in KB-8-5-11 adenocarcinoma cell line, qHTS therapeutic library screen (AID 1346987); note: nearly all actives have a fitted effect of over 65% in size
Settings: KB-8-5-11 (P-gp overexpressing) viability, CellTiter-Glo, 72 h; series mostly up to 44.5 µM
Records with an inconclusive call do not appear. Calls of active or inactive are those of the source. Calls follow the shape of the dose curve; as a rule, active = well fitted inhibition curve with a large enough effect; inconclusive = small, poorly fitted or top-dose-only effect; inactive = flat fitted curve, though single readings scatter.
Choose one outcome from this list and give only that: true (1) = active, false (0) = inactive

Record excerpt, results attached:
{"columns": ["compound", "group_label"],
 "data": [
  ["CC(C)n1c(=O)c(C(=O)NC2CC3CCC(C2)N3C[C@@H](O)CN(C)S(C)(=O)=O)cc2ccccc21 (stereo not given in full)", "false (0)"],
  ["CCCCNc1ncc2c(-c3ccc(S(=O)(=O)N4CCOCC4)cc3)nn(C3CCC(O)CC3)c2n1 (stereo not given)", "true (1)"],
  ["CC[C@H](C)/C=C(C)/C=C/C1=CC2=CC(=O)[C@]3(C)OC(=O)[C@@H](C(C)=O)[C@@H]3C2=CO1", "false (0)"],
  ["CC(C)=CCCC1(C)C2CCC1(C)C(O)C2 (stereo not given)", "false (0)"],
  ["COC(CCc1ccc(O)cc1)CC(=O)CCc1ccc(O)cc1 (stereo not given)", "false (0)"]
]}

Input: Outcome logged for CC#C[C@@H](CC(=O)O)c1ccc(OCc2cccc(-c3ccc(C(F)(F)F)cc3)c2)cc1 in this assay:
Output: false (0)

Input: Query: recorded result category for NCCCC[C@H](NC(=O)[C@@H]1CCCN1C(=O)[C@@H]1CSSC[C@H](N)C(=O)N[C@@H](Cc2ccccc2)C(=O)N[C@@H](Cc2ccccc2)C(=O)N[C@@H](CCC(N)=O)C(=O)N[C@@H](CC(N)=O)C(=O)N1)C(=O)NCC(N)=O in this test
Output: false (0)

Input: Hello, I am checking results. What call was entered for C[C@H](CN(C)C)Oc1nc(Nc2cc3cccc(Cl)c3cn2)cnc1C#N ?
Output: true (1)

Input: Dear all, I need the recorded test outcome for CC(C)C[C@@H](N)C(=O)N[C@H]1C(=O)N[C@@H](CC(N)=O)C(=O)N[C@H]2C(=O)N[C@H]3C(=O)N[C@H](C(=O)N[C@H](C(=O)O)c4cc(O)cc(O)c4-c4cc3ccc4O)[C@H](O)c3ccc(c(Cl)c3)Oc3cc2cc(c3O[C@@H]2O[C@H](CO)[C@@H](O)[C@H](O)[C@H]2O[C@H]2C[C@](C)(N)[C@H](O)[C@H](C)O2)Oc2ccc(cc2Cl)[C@H]1O , thank you.
Output: false (0)

Input: Recorded test outcome, item CC(=O)O[C@@H]1C[C@@]23C[C@@]24CC[C@H](O[C@@H]2OC[C@H](O)[C@H](O)[C@H]2O)C(C)(C)[C@@H]4CC[C@H]3[C@]2(C)[C@@H](O)C34O[C@H](C[C@@H](C)[C@@H]3[C@@]12C)[C@@H](C(C)(C)O)O4
Output: false (0)

----------
Tested on: Tov112D
Test: Primary qHTS to identify gynecologic anti-cancer compounds using libraries of approved drugs and bioactive compounds (AID 1345084); note: nearly all actives have a fitted effect of over 55% in size
Settings: Gynecologic cancer cell panel viability, ATPlite luminescence, 48 h; series mostly up to 57.5 µM
Results filed as inconclusive are left out. Active and inactive are the calls of the source. Calls come from the whole dose curve; as a rule, active = well fitted cell-killing curve with a large enough effect; inconclusive = small, poorly fitted or top-dose-only effect, or effect the other way; inactive = flat fitted curve, though single readings scatter.
Pick one: active, inactive

Solved cases below.
{"columns": ["compound", "group_label"],
 "data": [
  ["FC(F)(F)c1ccccc1-c1cc(C(F)(F)F)c2nc(C3=NOC4(CCCCC4)C3)[nH]c2c1", "inactive"],
  ["CNCCC(c1cccs1)c1ccc(O)c2ccccc12 (stereo not given)", "inactive"],
  ["CC(=O)Nc1cccc(-c2csc(Nc3cc(C)ccn3)n2)c1", "inactive"]
]}

Input: Could you kindly confirm the outcome this assay logged for O=c1[nH]c2cccc(N3CCN(Cc4ccc(-c5ccccc5)cc4)CC3)c2o1 ?
Output: inactive

Input: GET /call?item= CN1CCN(c2ccc(OC(F)(F)F)c(Nc3ncc4c(n3)-c3c(c(C(N)=O)nn3CCO)CC4)c2)CC1 returns the recorded outcome of this test.
Output: active

Input: Outcome? Cn1cc(-c2ccc(F)c(C(F)(F)F)c2)nc1C1CCN(c2ncnc3[nH]ncc23)CC1
Output: inactive

Input: Returns: the outcome recorded for O=c1[nH]c([C@@H]2CCCN2)nc2c1oc1ccc(Cl)cc12 in this assay.
Output: inactive

Input: // outcome(item) with item = O=C(NCc1ccccc1-c1ccccc1C(=O)NCCc1ccccn1)OCc1ccccc1
Output: inactive

Input: What outcome does the record of this test show for O=C(Nc1cccnc1)c1cc(-c2ccnc(F)c2)ccc1OCc1ccccc1 ?
Output: inactive

Input: Tell me the recorded outcome of this test for O=c1ccc2ccc(OCCCCN3CCN(c4cccc5sccc45)CC3)cc2[nH]1 .
Output: inactive

Input: What outcome does the record of this test show for Cc1ccc(S(=O)(=O)NCc2ccc(C(=O)NCCN(Cc3ccccc3)C(C)C)cc2)cc1 ?
Output: inactive

----------
Test system: HaCat
Assay: Cytotoxic Profiling of Annotated Libraries Using Quantitative High-Throughput Screening (AID 1296008); note: % is set by controls: 0 for no effect and ±100 for the full control effect; nearly all actives have a fitted effect of over 60% in size
Settings: Five cell lines viability, CellTiter-Glo ATP luminescence, 48-72 h; active compounds read low
Results filed as inconclusive are left out.
# maps each entry to its max response
Hi! Could you send only the number? It should be in %, unit omitted.

{"columns": ["compound", "observed"],
 "data": [
  ["COc1ccc(S(=O)(=O)n2cnc3cc(C)c(C)cc32)cc1", -14.6],
  ["FC(F)(F)c1ccc(/C=C/c2nc(COc3ccc(CCCCn4ccnn4)cc3)co2)cc1", -23.7]
]}

Input: Reported max response, compound CCOC(=O)c1cnn(-c2ccccc2)c1NC(=O)c1cc2nc(-c3ccco3)cc(C(F)(F)Cl)n2n1 : ____
Output: 3.78

Input: Query: max response; subject: CC1(CO)CC(O)[C@]2(C(=O)O)CCC34CC3(C=CC3[C@]5(C)C(CC[C@]34C)C(C)(CO)[C@@H](O)[C@H](O)[C@@H]5O)C2C1 (stereo partly specified)
Output: -0.72

Input: Please look up its max response: CC(=O)O[C@H]1CC(C)(C)CC2[C@]13CO[C@@]21CCC2[C@@]4(C)CC[C@H](O[C@@H]5OC[C@H](O[C@@H]6O[C@H](CO)[C@@H](O)[C@H](O)[C@H]6O[C@@H]6OC[C@@H](O[C@@H]7O[C@H](CO)[C@@H](O)[C@H](O)[C@H]7O)[C@H](O)[C@H]6O)[C@H](O)[C@H]5O[C@@H]5O[C@H](CO)[C@@H](O)[C@H](O)[C@H]5O)[C@@](C)(CO)C4CC[C@@]2(C)[C@]1(C)C[C@H]3O (stereo partly specified)
Output: 2.18

Input: Fill in the blank: the reported max response of O=C(/C=C/c1ccccc1O)O[C@@H]1O[C@H](CO)[C@@H](O)[C@H](O)[C@H]1O is ____.
Output: -3.03

----------
Test system: Tov112D
Assay: Primary qHTS to identify gynecologic anti-cancer compounds using libraries of approved drugs and bioactive compounds (AID 1345084); note: nearly all actives have a fitted effect of over 55% in size
Settings: Gynecologic cancer cell panel viability, ATPlite luminescence, 48 h; series mostly up to 57.5 µM
Records with an inconclusive call do not appear. Active and inactive are the calls of the source. Calls follow the shape of the dose curve; as a rule, active = well fitted cell-killing curve with a large enough effect; inconclusive = small, poorly fitted or top-dose-only effect, or effect the other way; inactive = flat fitted curve, though single readings scatter.
readout_type: outcome

Take a look at these entries with their results.
{"columns": ["molecule", "tgt", "outcome"],
 "data": [
  ["CC(C)c1noc(C2CCN(c3ncnc(Nc4ccc(S(C)(=O)=O)cc4F)c3[N+](=O)[O-])CC2)n1", "Tov112D", "inactive"],
  ["O=C([C@@H]1CCCN(c2ccc3[nH]c(C4(n5cc(Cl)cn5)CC4)nc3n2)C1)N1CCCC1", "Tov112D", "inactive"],
  ["CC1(CO)CC2C(O)C3=C(CC(C)(O)C2C1)C(=O)OC3 (stereo not given)", "Tov112D", "inactive"],
  ["CCCCCc1ccc(/C=C/C(=O)Nc2cc(Cl)ccc2C(=O)O)cc1", "Tov112D", "inactive"]
]}

Input: Recall the recorded outcome for CCCCc1c(-c2ccc(OC)cc2)[nH]c2nccnc12 with Tov112D and state it.
Output: inactive
